These measurements were taken from PubChem BioAssay (NCI).

- Test system: NCI-H23 lung
- experimentalProtocol: NCI tumour cell line growth inhibition, 48 h
resultType: TGI

{"columns": ["compound", "TGI"],
 "data": [
  ["CCCn1cnc2c(c1=N)C(c1ccc(F)cc1)c1sc3c(C)cccc3c1O2 (centres undefined)", "10.9 µM"],
  ["N#Cc1cccc(NC(=O)c2cc(-c3ccc(F)cc3F)ccc2O)c1", "6.23 µM"],
  ["CN1CCN(c2ccc(Nc3nc(NCCCNS(=O)(=O)c4ccc(C(F)(F)F)cc4)c4sccc4n3)cc2)CC1", "11.5 µM"]
]}

Query string: Returns the measured TGI for the input compound. Input: CCOC(=O)c1c(NC(=O)c2cccc(C(F)(F)F)c2)sc2c1CCC(=O)C2
Result string: > 100 µM

---

Assignment: determine reported GI50 for the given compounds.
- Test system: SR leukemia
- experimentalProtocol: NCI tumour cell line growth inhibition, 48 h

Completed entries (count: 3):
{"columns": ["compound", "GI50"],
 "data": [
  ["N#Cc1cccc(NC(=O)c2cc(-c3ccc(F)cc3F)ccc2O)c1", "2.91 µM"],
  ["CC(C)(O)c1cncc(-c2ccc3ncc(C#N)c(N4CCc5cc(F)c(Cl)cc54)c3c2)c1", "3.52 µM"],
  ["CCCn1cnc2c(c1=N)C(c1ccc(F)cc1)c1sc3c(C)cccc3c1O2 (centres undefined)", "0.648 µM"]
]}

For the next question, use this compound.
Query string: Returns the measured GI50 for the input compound. Input: CN1CCN(c2ccc(Nc3nc(NCCCNS(=O)(=O)c4ccc(C(F)(F)F)cc4)c4sccc4n3)cc2)CC1
Result string: 2.06 µM
